Time by entry:
- Tested on: Cavia porcellus
- Test method notes: Antiasthmatic activity in guinea pig assessed as inhibition of histamine phosphate solution-induced asthmatic reaction measured as increase in asthmogenic latency period at 0.5 mg/kg administered as intragastric (reference value: 99.30 +/- 30.06 sec)
- Format: functional
Respond numerically; units are s and should not be typed.

// worked examples, Time included
{"Molecule": "OCCCN1CCC(=C2c3ccc(Cl)cc3CCc3cccnc32)CC1", "Test readout": "Time", "Meas value": 360}
{"Molecule": "CC[C@H](CO)N1CCC(=C2c3ccc(Cl)cc3CCc3cccnc32)CC1", "Test readout": "Time", "Meas value": 229.2}
{"Molecule": "C[C@@H](CO)N1CCC(=C2c3ccc(Cl)cc3CCc3cccnc32)CC1", "Test readout": "Time", "Meas value": 209.7}
{"Molecule": "CN(C)CCC(c1ccc(Cl)cc1)c1ccccn1 (centres undefined) [CHLORPHENIRAMINE]", "Test readout": "Time", "Meas value": 214.7}
{"Molecule": "CC[C@@H](CO)N1CCC(=C2c3ccc(Cl)cc3CCc3cccnc32)CC1", "Test readout": "Time", "Meas value": 216}

Form field Time, entry "C[C@H](c1ccccc1)N1CCC(=C2c3ccc(Cl)cc3CCc3cccnc32)CC1" : 309.6

Query "C[C@@H](c1ccccc1)N1CCC(=C2c3ccc(Cl)cc3CCc3cccnc32)CC1" yields Time of 273.2

Time reported for this molecule "OCCN1CCC(=C2c3ccc(Cl)cc3CCc3cccnc32)CC1" : 248.5

What the record says about "C[C@H](CO)N1CCC(=C2c3ccc(Cl)cc3CCc3cccnc32)CC1" : Time is 215.6
